Test: antivirals protecting cells from dengue CPE – CPE readout, HTS (AID 540333)
Settings: Dengue virus CPE inhibition in host cells, at 20 µM
In all, about 10,000 compounds went through this assay and about 320 (3.2%) were called active. No stated cut-off is given here; in the data, active means CPE inhibition mostly above about 9.1% (no sharp cut-off); inactive means mostly below about 7.2%. The list comes from a sample in which actives are over-represented; it also holds close analogues and randomly drawn compounds.
Please answer using one outcome listed in active, inactive

Here's what some known entries look like.
INSERT INTO results (molecule, assigned_label) VALUES
  ('Cc1ccc(NC(=O)C(c2ccc(Cl)cc2Cl)N2CCCC2)cc1 (stereo not drawn)', 'active'),
  ('Cc1cc(C)cc(NC(=S)NCc2cccs2)c1', 'inactive'),
  ('CC(=O)c1ccc(NC(=O)CN2C(=O)/C(=C/C=C/c3ccccc3)SC2=S)cc1', 'inactive'),
  ('CC(C)/C=N/NC(=O)c1cccc(N2CCCC2=O)c1', 'inactive'),
  ('O=C(Nc1ccc(Cl)c(C(F)(F)F)c1)C(=O)N1CCCCC1', 'inactive');

What call does the record list for COC(=O)c1sccc1N/N=C/c1cccc(OC)c1O ? inactive

What call does the record list for CN(c1cccc(NC(=O)CN(c2cccc(Cl)c2)S(=O)(=O)c2ccccc2)c1)S(C)(=O)=O ? inactive

What call does the record list for O=C(Nc1nnc(-c2ccc(Cl)cc2)o1)C1=COCCO1 ? inactive

What call does the record list for COC(=O)c1ccc(CSc2nnc(CS(=O)Cc3ccc(Br)cc3)n2-c2ccccc2)cc1 (stereo not drawn) ? inactive

What call does the record list for O=C1CC(N2C(=O)/C(=C/C=C/c3ccccc3)SC2=S)C(=O)N1c1ccccc1 (stereo not drawn) ? active

What call does the record list for Cc1cccc(C)c1-n1c(SCC(=O)N2CC(=O)Nc3ccccc32)nc2ccccc2c1=O ? inactive

What call does the record list for Cc1c(C)c2ccc(OS(C)(=O)=O)cc2oc1=O ? inactive

What call does the record list for COc1ccc(/C=C(\C#N)C(=O)OCC(=O)Nc2c(C)cccc2C)cc1 ? inactive

What call does the record list for COc1ccc2c(C)cc(Sc3nnnn3-c3ccccc3)nc2c1 ? inactive

What call does the record list for CCOc1ccc(NCc2nnc(SCC(=O)Nc3nc(-c4ccccc4)cs3)n2-c2ccccc2)cc1 ? inactive

What call does the record list for O=C(OC(C(=O)Nc1ccc(Cl)c(C(F)(F)F)c1)c1ccccc1)C1=COCCO1 (stereo not drawn) ? active

What call does the record list for CN(c1cccc(NC(=O)CN(c2cccc(Cl)c2)S(=O)(=O)c2ccc(Cl)cc2)c1)S(C)(=O)=O ? active

###

Experiment: antivirals protecting cells from dengue CPE – CPE readout, HTS (AID 540333)
Details: Dengue virus CPE inhibition in host cells, at 20 µM
About 320 (3.2%) of roughly 10,000 compounds were called active. Cut-off read from the data, not from the text of the source: active = CPE inhibition mostly above about 9.1% (no sharp cut-off); inactive = mostly below about 7.2%. For the sample, actives were picked, then their nearest neighbours and some compounds at random.
Please answer using one outcome listed in class 1 (active), class 0 (inactive)

Here's what some known entries look like.
INSERT INTO measurements (molecule, assigned_label) VALUES
  ('CCCCCCCNC(=O)C1(CC2CC(c3ccc(Cl)cc3)=NO2)CCN(C(=O)C2(C)CC2)CC1 (centres undefined)', 'class 0'),
  ('CCCCCCCNC(=O)C1(CC2CC(c3cccc(Br)c3)=NO2)CCN(C(=O)Cc2ccc(F)cc2)CC1 (centres undefined)', 'class 1'),
  ('CC(=O)c1ccc(NC(=O)/C=C/c2ccc(C)cc2)cc1', 'class 0'),
  ('COc1cc(/C=N/NS(=O)(=O)c2ccccc2)ccc1OS(=O)(=O)c1ccc(C)cc1', 'class 0'),
  ('Cc1ccc(-n2c(=S)[nH]c3nc4c(cc3c2=O)COC(C)(C)C4)cc1', 'class 0');

What call does the record list for CCN1CCCC1CN(Cc1cc2ccc(C)cc2[nH]c1=O)C(=S)Nc1ccccc1OC (centres undefined) ? class 0

What call does the record list for O=C(COc1ccccc1[N+](=O)[O-])N/N=C/c1cccs1 ? class 0

What call does the record list for Cc1nn(-c2ccccc2)c(Cl)c1/C=N/NC(=O)c1cccnc1 ? class 0

###

Assay: antivirals protecting cells from dengue CPE – CPE readout, HTS (AID 540333)
Details: Dengue virus CPE inhibition in host cells, at 20 µM
Among all 10,000 compounds or so, about 320 (3.2%) were called active. Rule as the data show it: active = CPE inhibition mostly above about 9.1% (no sharp cut-off); inactive = mostly below about 7.2%. The sample holds actives, similar compounds and a random draw of the others, so the mix is not that of the screen.
Please answer using one outcome listed in Yes = active, No = inactive

INSERT INTO assay_data (molecule, assigned_label) VALUES
  ('COC(=O)CN1C(c2ccc(OC)cc2)=Nc2ccc(Cl)cc2C1c1ccccc1 (configuration not stated)', 'No'),
  ('CN(CC(=O)Nc1ccc(S(=O)(=O)N2CCCC2)cc1)Cc1ccc(Cl)cc1', 'No'),
  ('Cn1cnnc1SC1c2cccc3cccc(c23)C1NS(=O)(=O)c1ccccc1 (configuration not stated)', 'No'),
  ('O=C(NCCCN1CCOCC1)c1onc(CSc2ccc(F)c(F)c2)c1C(=O)NCCCN1CCOCC1', 'No'),
  ('CC(C)CCNC(=O)c1onc(CSc2ccccn2)c1C(=O)NCCC(C)C', 'Yes');

What call does the record list for CN(CC(=O)Nc1ccc(F)cc1)c1ccc(S(=O)(=O)N2CCCCC2)cc1[N+](=O)[O-] ? No

What call does the record list for O=C(NCCCN1CCOCC1)c1onc(CSc2ccccn2)c1C(=O)NCCCN1CCOCC1 ? No

###

Assay: antivirals protecting cells from dengue CPE – CPE readout, HTS (AID 540333)
Conditions: Dengue virus CPE inhibition in host cells, at 20 µM; active compounds read high
Screen size: about 10,000 compounds; about 320 (3.2%) were called active. For the sample, actives were picked, then their nearest neighbours and some compounds at random.
For each entry below, report its CPE inhibition value.

Here's what some known entries look like.
INSERT INTO assay_data (chem_smiles, result_value) VALUES
  ('O=C(NCc1ccco1)c1ccc(Cl)c(S(=O)(=O)N2CCc3ccccc32)c1', '1.37% (inactive)'),
  ('COCCNC(=O)c1onc(CSc2cccc(OC)c2)c1C(=O)NCCOC', '0.425% (inactive)'),
  ('C=CCN1c2ccccc2[C@]23C[C@@H](C(=O)OC)N(C(=O)NC4CCCC4)C2=NC(C(=O)OC)=C(C(=O)OC)[C@H]13', '0.19% (inactive)'),
  ('O=C(CN1CCCCCCC1)N/N=C/c1ccccc1F', '0.805% (inactive)'),
  ('COc1cccc(SCc2noc(C(=O)NCCN(C)C)c2C(=O)NCCN(C)C)c1', '0.54% (inactive)');

Dear colleague, could you please provide CPE inhibition for the compounds listed below?
1. Cc1nc2ccc(C(=O)O)cc2nc1C
2. Cc1nn(-c2ccccc2)c(N)c1C(O)(C(F)(F)F)C(F)(F)F
3. O=C(CCc1ccc(Oc2cc([N+](=O)[O-])cc([N+](=O)[O-])c2)cc1)N1CCCCCC1

["0.025% (inactive)", "0.32% (inactive)", "12.4% (active)"]

###

Assay: antivirals protecting cells from dengue CPE – CPE readout, HTS (AID 540333)
Details: Dengue virus CPE inhibition in host cells, at 20 µM
The campaign covered roughly 10,000 compounds. About 320 (3.2%) were called active. Rule as the data show it: active = CPE inhibition mostly above about 9.1% (no sharp cut-off); inactive = mostly below about 7.2%. What follows is part of a selection rich in actives, with near analogues and random picks from the rest.
Please answer using one outcome listed in 1 (active), 0 (inactive)

INSERT INTO measurements (molecule, assigned_label) VALUES
  ('Cn1cc([N+](=O)[O-])c(C(=O)Nc2ccn(C34CC5CC(CC(C5)C3)C4)n2)n1', 1),
  ('C=CCC(C(=O)Oc1c(C(C)(C)C)cc(C)cc1C(C)(C)C)c1ccccc1 (stereo unspecified)', 1),
  ('CCn1cc([N+](=O)[O-])c(C(=O)Nc2ccn(C34CC5CC(CC(C5)C3)C4)n2)n1', 0),
  ('Cc1ccc(NC(=O)CSc2nn(-c3ccc(Cl)cc3)c(=S)s2)cc1S(=O)(=O)N(C)C', 0),
  ('CCOC(=O)[C@H]1[C@H]2COc3ccc(Cl)cc3[C@@H]2N2C(=O)c3cc(F)c(F)cc3NC(=O)[C@@]12C', 1);

We now examine a further molecule.
What call does the record list for CC(C)=NOC(=O)c1ccc(-c2ccccc2)cc1 ? 0

###

Experiment: antivirals protecting cells from dengue CPE – CPE readout, HTS (AID 540333)
Details: Dengue virus CPE inhibition in host cells, at 20 µM
Out of some 10,000 compounds screened, about 320 (3.2%) were called active. Rule as the data show it: active = CPE inhibition mostly above about 9.1% (no sharp cut-off); inactive = mostly below about 7.2%. What follows is part of a selection rich in actives, with near analogues and random picks from the rest.
Please answer using one outcome listed in 1 (yes) for active, 0 (no) for inactive

INSERT INTO results (compound, assigned_label) VALUES
  ('C#CCN(C(=O)Nc1ccccc1)c1ccccc1', '0 (no)');

What call does the record list for Cc1ccc(NC(=S)NCCc2ccc(S(N)(=O)=O)cc2)cc1C ? 0 (no)

What call does the record list for COc1ccc([C@H]2CC(=O)C=C(c3cccc(OC)c3)C2)cc1 ? 0 (no)

What call does the record list for COc1ccc([C@H]2CC(=O)C=C(c3ccccc3)C2)cc1 ? 0 (no)

What call does the record list for CCN(C(=O)COC(=O)/C=C/c1ccc(O)c(OC)c1)C1CCS(=O)(=O)C1 (stereo unspecified) ? 0 (no)

What call does the record list for O=C(NC(=S)Nc1nc2c(s1)CCCC2)c1ccc(C(=O)c2ccccc2)cc1 ? 1 (yes)

Cited source: PubChem BioAssay AID540333
